method summary: Evaluation of conversion rate to active form in buffer solution (Experimental Example 1)
Assay type: physicochemical
protocol conditions: pH7.0, 0 hr
Quick rule for you: Production rate of Alvocidib at 4% or higher means t, lower means f.

-- ask Reported Production rate of Alvocidib reaches at least 4% for CNC(=O)O[C@@H]1CN(C)CC[C@@H]1c1c(O)cc(O)c2c(=O)cc(-c3ccccc3Cl)oc12 [Comparative Example 5, reference compound] ?
-- reply f

-- ask Exam item: decide whether the reported Production rate of Alvocidib for CCOC(=O)O[C@@H]1CN(C)CC[C@@H]1c1c(O)cc(O)c2c(=O)cc(-c3ccccc3Cl)oc12 [Comparative Example 3, reference compound] is at least 4%.
-- reply f

-- ask Could you please find out whether CN1CC[C@H](c2c(O)cc(O)c3c(=O)cc(-c4ccccc4Cl)oc23)[C@H](OC(=O)CN)C1 [Comparative Example 8, reference compound] has Production rate of Alvocidib that meets 4% or exceeds it?
-- reply t

-- ask Hello, I need to know if CC(C)[C@H](N)C(=O)O[C@@H]1CN(C)CC[C@@H]1c1c(O)cc(O)c2c(=O)cc(-c3ccccc3Cl)oc12 [Comparative Example 10, reference compound] has measured Production rate of Alvocidib not below 4%. Thanks!
-- reply f

-- ask Evaluate CN1CC[C@H](c2c(OC(=O)N(C)CCN)cc(O)c3c(=O)cc(-c4ccccc4Cl)oc23)[C@H](O)C1 [Comparative Example 13, reference compound] : Production rate of Alvocidib at minimum 4%?
-- reply f

More entries:
-- ask Form field: Production rate of Alvocidib at least 4%? Entry: CNCCN(C)C(=O)Oc1cc(O)c2c(=O)cc(-c3ccccc3Cl)oc2c1[C@H]1CCN(C)C[C@H]1O [Comparative Example 14, reference compound]
-- reply t

-- ask Given CN1CC[C@H](c2c(O)cc(O)c3c(=O)cc(-c4ccccc4Cl)oc23)[C@H](OC(=O)[C@@H](N)CO)C1 [Comparative Example 9, reference compound] , state whether its Production rate of Alvocidib is at least 4%.
-- reply t

-- ask Does Production rate of Alvocidib meet or surpass 4% for CCNC(=O)O[C@@H]1CN(C)CC[C@@H]1c1c(O)cc(O)c2c(=O)cc(-c3ccccc3Cl)oc12 [Comparative Example 4, reference compound] ?
-- reply f

-- ask Exam item: decide whether the reported Production rate of Alvocidib for CNC(=O)Oc1cc(O)c2c(=O)cc(-c3ccccc3Cl)oc2c1[C@H]1CCN(C)C[C@H]1O [Comparative Example 2, reference compound] is at least 4%.
-- reply t

---

Readings of Production rate (%) of Alvocidib for the listed molecules
method summary: Evaluation of conversion rate to active form in human plasma (Experimental Example 3)
Assay type: in vitro ADME
protocol conditions: human, 120 min, 0.2 μmol/L
Protocol: For Example 1, Example 2, Example 3, Example 4, Example 5, Example 6, Comparative Example 3, Comparative Example 4, Comparative Example 6, Comparative Example 7, Comparative Example 8, Comparative Example 9, Comparative Example 10 and Comparative Example 12, the attrition rate of the test compound and the conversion rate of the test compound to Alvocidib in human plasma and BALB/c mouse plasma were calculated by the following method. […]
Your reply should be a number followed by the unit it is expressed in.

-- ask Give recorded Production rate (%) of Alvocidib. CCC(=O)O[C@@H]1CN(C)CC[C@@H]1c1c(O)cc(O)c2c(=O)cc(-c3ccccc3Cl)oc12
-- reply 15%

-- ask Consider the molecule CN1CC[C@H](c2c(O)cc(O)c3c(=O)cc(-c4ccccc4Cl)oc23)[C@H](OC(=O)CN)C1 [Comparative Example 8, reference compound] and give its recorded Production rate (%) of Alvocidib.
-- reply 16%

-- ask Give the reported Production rate (%) of Alvocidib for this molecule. CN1CC[C@H](c2c(O)cc(O)c3c(=O)cc(-c4ccccc4Cl)oc23)[C@H](OC(=O)[C@@H](N)CO)C1 [Comparative Example 9, reference compound]
-- reply 25%

-- ask Identify measured Production rate (%) of Alvocidib associated with CCNC(=O)O[C@@H]1CN(C)CC[C@@H]1c1c(O)cc(O)c2c(=O)cc(-c3ccccc3Cl)oc12 [Comparative Example 4, reference compound]
-- reply 3%

Others:
-- ask Give the reported value of Production rate (%) of Alvocidib for this record: CN1CC[C@H](c2c(O)cc(O)c3c(=O)cc(-c4ccccc4Cl)oc23)[C@H](OC(=O)c2ccccc2F)C1
-- reply 32%

-- ask Find the measured Production rate (%) of Alvocidib of CC(C)[C@H](N)C(=O)O[C@@H]1CN(C)CC[C@@H]1c1c(O)cc(O)c2c(=O)cc(-c3ccccc3Cl)oc12 [Comparative Example 10, reference compound] and report it.
-- reply 3%

-- ask Report measured Production rate (%) of Alvocidib; entry is C[C@H](N)C(=O)O[C@@H]1CN(C)CC[C@@H]1c1c(O)cc(O)c2c(=O)cc(-c3ccccc3Cl)oc12 [Comparative Example 7, reference compound]
-- reply 32%

-- ask # return recorded Production rate (%) of Alvocidib for input CCOC(=O)O[C@@H]1CN(C)CC[C@@H]1c1c(O)cc(O)c2c(=O)cc(-c3ccccc3Cl)oc12 [Comparative Example 3, reference compound]
-- reply 2%

---

method summary: Evaluation of conversion rate to active form in human plasma (Experimental Example 3)
Assay type: in vitro ADME
protocol conditions: human, 120 min, 0.2 μmol/L
result type: Residual rate (%) of test compound
Include the unit right after the number.

Worked examples, 5 compounds total:
-- ask For CCNC(=O)O[C@@H]1CN(C)CC[C@@H]1c1c(O)cc(O)c2c(=O)cc(-c3ccccc3Cl)oc12 [Comparative Example 4, reference compound] , write its Residual rate (%) of test compound.
-- reply 134%

-- ask Report measured Residual rate (%) of test compound; entry is CCC(=O)O[C@@H]1CN(C)CC[C@@H]1c1c(O)cc(O)c2c(=O)cc(-c3ccccc3Cl)oc12
-- reply 89%

-- ask Dear colleague, please send me the reported Residual rate (%) of test compound for CC(C)[C@H](N)C(=O)O[C@@H]1CN(C)CC[C@@H]1c1c(O)cc(O)c2c(=O)cc(-c3ccccc3Cl)oc12 [Comparative Example 10, reference compound] when you can.
-- reply 105%

-- ask Item CN1CC[C@H](c2c(O)cc(O)c3c(=O)cc(-c4ccccc4Cl)oc23)[C@H](OC(=O)c2ccccc2F)C1 : provide Residual rate (%) of test compound
-- reply 58%

-- ask Please list Residual rate (%) of test compound recorded for the compound CCOC(=O)O[C@@H]1CN(C)CC[C@@H]1c1c(O)cc(O)c2c(=O)cc(-c3ccccc3Cl)oc12 [Comparative Example 3, reference compound]
-- reply 101%

***
-- ask Return reported Residual rate (%) of test compound. Input compound: CN1CC[C@H](c2c(O)cc(O)c3c(=O)cc(-c4ccccc4Cl)oc23)[C@H](OC(=O)CN)C1 [Comparative Example 8, reference compound]
-- reply 94%

-- ask Consider the compound CN1CC[C@H](c2c(O)cc(O)c3c(=O)cc(-c4ccccc4Cl)oc23)[C@H](OC(=O)[C@@H](N)CO)C1 [Comparative Example 9, reference compound] and give its recorded Residual rate (%) of test compound.
-- reply 80%

-- ask Fill in reported Residual rate (%) of test compound for this entry: C[C@H](N)C(=O)O[C@@H]1CN(C)CC[C@@H]1c1c(O)cc(O)c2c(=O)cc(-c3ccccc3Cl)oc12 [Comparative Example 7, reference compound]
-- reply 65%

---

method summary: Evaluation of conversion rate to active form in buffer solution (Experimental Example 1)
Assay type: physicochemical
protocol conditions: pH6.0, 3 hr, 37° C., 25 umol/L in buffer solution
Let's look at some compounds and their measured Residual rate.
# output: bare number, implied unit %

-- ask Using the record for CCN(CCC1CCCCN1)C(=O)Oc1cc(O)c2c(=O)cc(-c3ccccc3Cl)oc2c1[C@H]1CCN(C)C[C@H]1O (stereo partly shown) , state its measured Residual rate.
-- reply 55.6

-- ask Give reported Residual rate value for CN1CC[C@H](c2c(OC(=O)N(CCC(F)(F)F)CC3CCCCN3)cc(O)c3c(=O)cc(-c4ccccc4Cl)oc23)[C@H](O)C1 (stereo partly shown)
-- reply 28.3

***
-- ask Provide only the value of recorded Residual rate for CN1CC[C@H](c2c(OC(=O)N(C)C[C@H]3CCCCN3)cc(O)c3c(=O)cc(-c4ccccc4Cl)oc23)[C@H](O)C1
-- reply 61.7

-- ask Please give the documented Residual rate of CCN(C[C@H]1CCCCN1)C(=O)Oc1cc(O)c2c(=O)cc(-c3ccccc3Cl)oc2c1[C@H]1CCN(C)C[C@H]1O
-- reply 74.5

-- ask Identify measured Residual rate corresponding to CC(C)N(CC1CCCCN1)C(=O)Oc1cc(O)c2c(=O)cc(-c3ccccc3Cl)oc2c1[C@H]1CCN(C)C[C@H]1O (stereo partly shown)
-- reply 74.1

-- ask Fill in reported Residual rate for this entry: CN1CC[C@H](c2c(OC(=O)N(CCCC(F)(F)F)CC3CCCCN3)cc(O)c3c(=O)cc(-c4ccccc4Cl)oc23)[C@H](O)C1 (stereo partly shown)
-- reply 24.5

-- ask Answer with the recorded Residual rate of CCN(C[C@@H]1CCCCN1)C(=O)Oc1cc(O)c2c(=O)cc(-c3ccccc3Cl)oc2c1[C@H]1CCN(C)C[C@H]1O [Example 1, ditrifluoroacetate] only.
-- reply 81.8

-- ask Note Residual rate for the compound shown: CN1CC[C@H](c2c(OC(=O)N(CCF)CC3CCCCN3)cc(O)c3c(=O)cc(-c4ccccc4Cl)oc23)[C@H](O)C1 (stereo partly shown)
-- reply 44.8

-- ask Kindly indicate its recorded Residual rate. Item: CN1CC[C@H](c2c(OC(=O)N(Cc3ccccc3)CC3CCCCN3)cc(O)c3c(=O)cc(-c4ccccc4Cl)oc23)[C@H](O)C1 (stereo partly shown)
-- reply 56.7

-- ask Give the measured Residual rate for CCCN(CC1CCCCN1)C(=O)Oc1cc(O)c2c(=O)cc(-c3ccccc3Cl)oc2c1[C@H]1CCN(C)C[C@H]1O (stereo partly shown)
-- reply 76.6

-- ask Using known records, supply Residual rate for CCCN(C[C@@H]1CCCCN1)C(=O)Oc1cc(O)c2c(=O)cc(-c3ccccc3Cl)oc2c1[C@H]1CCN(C)C[C@H]1O
-- reply 79.8

-- ask Consider the compound CN1CC[C@H](c2c(OC(=O)N(C)C[C@@H]3CCCCN3)cc(O)c3c(=O)cc(-c4ccccc4Cl)oc23)[C@H](O)C1 . State its measured Residual rate.
-- reply 79.4

-- ask Report measured Residual rate; entry is COCCN(CC1CCCCN1)C(=O)Oc1cc(O)c2c(=O)cc(-c3ccccc3Cl)oc2c1[C@H]1CCN(C)C[C@H]1O (stereo partly shown)
-- reply 54.0

These data points were gathered from patent US12617779B2.
